Test system: SK-MEL-5 melanoma
Assay: NCI-60 one-dose screen, 48 h (100 = growth as untreated, 0 = no growth, -100 = all killed)
Details: 10 µM unless noted
Method: Growth inhibition of the SK-MEL-5 human tumor cell line is measured as a screen for anti-cancer activity. Cells are grown in 96 well plates and exposed to the test compound for 48 hours. Compounds are tested at a single concentration, which is 10^-5 M for most compounds. The reported endpoint is percent growth (GI% or GIPRCNT), where numbers from 0 - 100% represent growth inhibition, and numbers from -100% - 0 represent cell death. For example, a value of 40 represents 60% growth inhibition. […]
Compounds without any hit were thinned out: in the full panel of roughly 83,000, 20% have a hit.
readout-kind: growth (%)
Could you give me the number in %? Just the number is fine.

Previously resolved entries follow.
INSERT INTO assay_data (compound, units_symbol, val) VALUES
  ('CO[C@@H](C(=O)N1Cc2[nH]nc(NC(=O)c3ccc(N4CCN(C)CC4)cc3)c2C1)c1ccccc1', '%', -20.5),
  ('CCCCCCC1(/C=N/NC(N)=O)NC(=O)NC1=O (centres undefined)', '%', 96.9),
  ('COc1cc(F)c(F)c(Nc2ccc(I)cc2F)c1NS(=O)(=O)C1(C[C@H](O)CO)CC1', '%', 19.1),
  ('Clc1ccc(/C=C/c2cc(N3CCOCC3)c3cc(Cl)c(Cl)cc3n2)cc1', '%', 93.9),
  ('C=CC(=O)Nc1cccc(Oc2nc(Nc3ccc(N4CCN(C)CC4)cc3)nc3ccsc23)c1', '%', -97.2);

Recorded growth for CC(C)(C)OC(=O)N1CCC(O)[C@@H](O[Si](c2ccccc2)(c2ccccc2)C(C)(C)C)[C@H]1/C=C/c1ccccc1 (some centres undefined) , please?
30.2

Okay, and `C[C@@H](C[C@H](CCO)c1cc(C(F)(F)F)cc(C(F)(F)F)c1)c1ccc2ccccc2c1` ?
105

Okay, and `C[C@@H](N)c1ccc(C(=O)Nc2ccnc3[nH]ccc23)cc1` ?
67.8

Okay, and `CNC(=O)c1cc(Oc2ccc(NC(=O)Nc3cc(C(C)(C)C)nn3-c3ccc4ncccc4c3)c(F)c2)ccn1` ?
-83.5

Okay, and `C=CC(=O)Nc1cc(Nc2nccc(-c3cn(C)c4ccccc34)n2)c(OC)cc1N(C)CCN(C)C` ?
-96.5
